- measurement.target: K48-tetraubiquitin chains, P0CG48
- Sequence (P0CG48 whole entry, looked up): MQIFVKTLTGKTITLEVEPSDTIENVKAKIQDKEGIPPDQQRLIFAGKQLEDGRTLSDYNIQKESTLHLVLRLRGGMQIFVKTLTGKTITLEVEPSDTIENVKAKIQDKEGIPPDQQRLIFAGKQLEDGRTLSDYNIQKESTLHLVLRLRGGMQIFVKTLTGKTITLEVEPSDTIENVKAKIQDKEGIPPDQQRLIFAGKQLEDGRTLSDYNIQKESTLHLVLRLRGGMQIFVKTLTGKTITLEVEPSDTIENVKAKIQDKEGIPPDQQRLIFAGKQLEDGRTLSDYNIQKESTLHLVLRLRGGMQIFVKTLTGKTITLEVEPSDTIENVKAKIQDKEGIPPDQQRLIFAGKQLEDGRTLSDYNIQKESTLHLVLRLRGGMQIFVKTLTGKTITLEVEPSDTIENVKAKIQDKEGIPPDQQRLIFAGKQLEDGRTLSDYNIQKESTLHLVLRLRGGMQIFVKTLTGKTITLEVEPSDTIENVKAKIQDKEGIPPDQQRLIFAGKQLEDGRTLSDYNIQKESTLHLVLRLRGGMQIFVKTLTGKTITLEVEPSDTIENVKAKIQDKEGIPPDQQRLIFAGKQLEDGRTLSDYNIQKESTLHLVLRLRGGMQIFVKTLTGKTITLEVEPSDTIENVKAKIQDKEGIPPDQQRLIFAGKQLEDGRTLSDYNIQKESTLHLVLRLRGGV
quantity.kind: cleavage activity

Some proteins with recorded cleavage activity:
Please look up its cleavage activity: GST-OTU4c-C136S (protein) MMICYSPITTCSRNAISIKRHLGSRLYGVVAHGSSKFSCYSLLSGLSRRHYTGFRVSVSNRPSSWHDKGLFGFAYTGVIVSLLVCYSSTSQSAYADSSRDKDANNVHHHSSDGKFHNGKRVYTDYSIIGIPGDGRSLFRSVAHGFCLRSGKLAPGEKMQRELADELRTRVADEFIQRRQETEWFVEGDFDTYVRQIRDPHVWGGEPELFMASHVLQMPITVYMKDDKAGGLISIAEYGQEYGKDDPIRVLYHGFGHYDALLLHESKASIPKSKL
completely abolished

Further, for OTU1-C92S (protein) MQNQIDMVKDEAEVAASISAIKGEEWGNCSSVEDQPSFQEEEAAKVPYVGDKEPLSSLAAEYQSGSPILLEKIKILDSQYIGIRRTRGDGNSFFRSFMFSYLEHILESQDRAEVDRIKVNVEKCRKTLQNLGYTDFTFEDFFALFLEQLDDILQGTEESISYDELVNRSRDQSVSDYIVMFFRFVTAGDIRTRADFFEPFITGLSNATVDQFCKSSVEPMGEESDHIHITALSDALGVAIRVVYLDRSSCDSGGVTVNHHDFVPVGITNEKDEEASAPFITLLYRPGHYDILYPKPSCKVSDNVGK ?
completely abolished

Further, for OTU1-H288R (protein) MQNQIDMVKDEAEVAASISAIKGEEWGNCSSVEDQPSFQEEEAAKVPYVGDKEPLSSLAAEYQSGSPILLEKIKILDSQYIGIRRTRGDGNCFFRSFMFSYLEHILESQDRAEVDRIKVNVEKCRKTLQNLGYTDFTFEDFFALFLEQLDDILQGTEESISYDELVNRSRDQSVSDYIVMFFRFVTAGDIRTRADFFEPFITGLSNATVDQFCKSSVEPMGEESDHIHITALSDALGVAIRVVYLDRSSCDSGGVTVNHHDFVPVGITNEKDEEASAPFITLLYRPGRYDILYPKPSCKVSDNVGK ?
completely abolished

Further, for OTU1-D89E (protein) MQNQIDMVKDEAEVAASISAIKGEEWGNCSSVEDQPSFQEEEAAKVPYVGDKEPLSSLAAEYQSGSPILLEKIKILDSQYIGIRRTRGEGNCFFRSFMFSYLEHILESQDRAEVDRIKVNVEKCRKTLQNLGYTDFTFEDFFALFLEQLDDILQGTEESISYDELVNRSRDQSVSDYIVMFFRFVTAGDIRTRADFFEPFITGLSNATVDQFCKSSVEPMGEESDHIHITALSDALGVAIRVVYLDRSSCDSGGVTVNHHDFVPVGITNEKDEEASAPFITLLYRPGHYDILYPKPSCKVSDNVGK ?
completely abolished

New cases:
Please look up its cleavage activity: OTU7a-C48S (protein) MAKTKQQKSKPKKQPHQKQGKDCDLSQFRAQLDALGLKIIQVTADGNSFFRAIADQLEGNEDEHNKYRNMIVLYIVKNREMFEPFIEDDVPFEDYCKTMDDDGTWAGNMELQAASLVTRSNICIHRNMSPRWYIRNFEDTRTRMIHLSYHDGEHYNSVRSKEDACGGPARPVVIEADAKVSAASKQAKATESKSKNKADKCHVNAGAIKVVMSGSCCDNTEKAEQVLLQVNGDVDAAIEFLIADQGMESLTENDTETASASDTINPKHASDSPMENTEQAREELIEEESASGNNSETVQAKCTTQTDDKKIPRNKTCPCGSKKKYKSCCGTATGRSSVKLLVSQTMESKKGRKNLRRGTSNEVEANAPDVGALCI
completely abolished

# credit: patent US20150353909
